Target: purified PSMA (Homo sapiens)
Sequence (Q04609 whole entry): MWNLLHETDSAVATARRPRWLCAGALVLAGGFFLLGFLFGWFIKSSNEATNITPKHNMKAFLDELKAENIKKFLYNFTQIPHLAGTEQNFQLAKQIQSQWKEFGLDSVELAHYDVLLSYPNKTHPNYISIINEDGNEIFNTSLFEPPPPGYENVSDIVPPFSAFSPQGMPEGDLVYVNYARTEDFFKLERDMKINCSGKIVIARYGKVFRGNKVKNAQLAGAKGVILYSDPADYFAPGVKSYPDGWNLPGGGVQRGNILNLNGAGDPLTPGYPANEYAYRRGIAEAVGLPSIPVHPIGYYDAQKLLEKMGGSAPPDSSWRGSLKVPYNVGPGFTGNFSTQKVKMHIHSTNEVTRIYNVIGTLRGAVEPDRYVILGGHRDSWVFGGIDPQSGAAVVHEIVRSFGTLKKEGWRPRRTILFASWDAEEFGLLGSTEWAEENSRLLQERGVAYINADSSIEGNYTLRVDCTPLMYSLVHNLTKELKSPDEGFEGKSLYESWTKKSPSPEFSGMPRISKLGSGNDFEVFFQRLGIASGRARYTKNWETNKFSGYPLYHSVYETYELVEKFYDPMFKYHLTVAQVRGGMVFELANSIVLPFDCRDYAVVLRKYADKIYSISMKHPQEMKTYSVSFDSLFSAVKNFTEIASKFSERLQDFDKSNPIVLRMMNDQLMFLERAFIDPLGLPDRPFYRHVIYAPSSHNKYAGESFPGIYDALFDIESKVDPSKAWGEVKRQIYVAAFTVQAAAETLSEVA
observed.property: IC50 (nM)
One number for each entry, in nM.

Query: Which IC50 is listed for O=C(O)CC[C@H](NP(=O)(O)OC[C@H](NC(=O)CC[C@H](NC(=O)c1ccc(F)cc1)C(=O)O)C(=O)O)C(=O)O [compound 2] ?
Reply: 0.68
